Provide the reported IC50 of each item.
# Test system: Trypanosoma cruzi
# assay.procedure: Antitrypanosomal activity against nifurtimox-sensitive Trypanosoma cruzi Tulahuen CL2 infected in human MRC-5 SV2 cells assessed as inhibition of parasite growth measured after 7 days by spectrophotometric analysis
# Assay type: functional, organism-based
# protocol.conditions: Tulahuen CL2, MRC-5 SV2, 168 h

Ask: IC50 of "Nc1ncnc2c1c(Oc1ccc(Cl)cc1)nn2[C@@H]1O[C@H](CO)[C@@H](O)[C@H]1O" on Trypanosoma cruzi?
Result: > 64 µM

Ask: Query the reported IC50 for Trypanosoma cruzi; item: "Nc1ncnc2c1cnn2[C@@H]1O[C@H](CO)C[C@H]1O"
Result: > 64 µM

Ask: Return IC50 measured with Trypanosoma cruzi given this compound: "O=c1[nH]cnc2c1c(Br)nn2[C@@H]1O[C@H](CO)[C@@H](F)[C@H]1O"
Result: > 64 µM

---

Would you mind telling me the reported IC50 of each entry?
# System: Trypanosoma cruzi
# assay.procedure: Antitrypanosomal activity against nifurtimox-sensitive Trypanosoma cruzi Tulahuen CL2 infected in human MRC-5 SV2 cells assessed as inhibition of parasite growth measured after 7 days by spectrophotometric analysis
# Format: functional, organism-based
# protocol.conditions: Tulahuen CL2, MRC-5 SV2, 168 h
Number in µM, nothing else.

Ask: Observed IC50 on Trypanosoma cruzi for "Nc1ncnc2c1c(/C=C/c1ccccc1)nn2[C@@H]1O[C@H](CO)[C@@H](O)[C@H]1O" , please.
Result: 16.5

Ask: Form entry - test system: Trypanosoma cruzi; read-out: IC50; compound: "CNC(=O)c1nn([C@@H]2O[C@H](CO)[C@@H](O)[C@H]2O)c2ncnc(N)c12"
Result: 4

Ask: Value wanted: IC50 (Trypanosoma cruzi) of entry "Nc1ncnc2c1cnn2[C@@H]1O[C@H](CO)[C@@H](O)[C@H]1O"
Result: 0.29

Ask: Could you share what IC50 was measured for "Nc1ncnc2c1c(Br)nn2[C@H]1C[C@H](O)[C@@H](CO)O1" , tested on Trypanosoma cruzi?
Result: 53.2

Ask: Fill in the recorded IC50 for this compound, with Trypanosoma cruzi as test system: "Nc1ncnc2c1c(-c1ccc(Cl)cc1)nn2[C@@H]1O[C@H](CO)[C@@H](O)[C@H]1O"
Result: 0.32

---

Please go through the items and note down their pIC50.
# System: Trypanosoma cruzi
# assay.procedure: Antitrypanosomal activity against nifurtimox-sensitive Trypanosoma cruzi Tulahuen CL2 infected in human MRC-5 SV2 cells assessed as inhibition of parasite growth measured after 7 days by spectrophotometric analysis
# Format: functional, organism-based
# protocol.conditions: Tulahuen CL2, MRC-5 SV2, 168 h
pIC50: −log10 of the molar value.

Ask: Record lookup: for Trypanosoma cruzi, what pIC50 belongs to "Nc1ncnc2c1c(C(=O)Nc1ccccc1)nn2[C@@H]1O[C@H](CO)[C@@H](O)[C@H]1O" ?
Result: < 4.19

Ask: Missing value: pIC50, Trypanosoma cruzi, entry "Oc1ncnc2[nH]nc(Br)c12" . Fill in?
Result: < 4.19

Ask: Field: pIC50 (Trypanosoma cruzi). Entry: "Nc1ncnc2c1c(C1CC1)nn2[C@@H]1O[C@H](CO)[C@@H](O)[C@H]1O"
Result: < 4.19

---

# System: Leishmania infantum
# assay.procedure: Antileishmanial activity against amastigote form of Leishmania infantum MHOM/MA(BE)/67 infected in Swiss mouse peritoneal macrophages assessed as reduction in parasite growth treated at 2 hrs post-infection and measured after 5 days by Giemsa staining based microscopic analysis
# Format: functional, organism-based
# protocol.conditions: MHOM/MA(BE)/67, Peritoneal macrophage
pIC50: −log10 of the molar value.
observation.type: pIC50

Ask: Which measured pIC50 value corresponds to "Nc1ncnc2c1c(-c1ccccn1)nn2[C@@H]1O[C@H](CO)[C@@H](O)[C@H]1O" ?
Result: ≤ 4.29

Ask: Can you share its pIC50? I mean this compound: "Nc1ncnc2c1c(-c1ccc(F)c(Cl)c1)nn2[C@@H]1O[C@H](CO)[C@@H](O)[C@H]1O"
Result: < 4.19

Ask: pIC50 for "Nc1ncnc2c1cnn2[C@@H]1O[C@H](CO)[C@@H](F)[C@H]1O" ?
Result: < 4.19

Ask: // returns reported pIC50 for input "Nc1ncnc2c1cnn2[C@H]1C[C@H](O)[C@@H](CO)O1"
Result: < 4.19
